Molecular target: Metabotropic glutamate receptor 8 (Rattus norvegicus) (UniProt P70579)
Sequence (P70579 whole entry, looked up): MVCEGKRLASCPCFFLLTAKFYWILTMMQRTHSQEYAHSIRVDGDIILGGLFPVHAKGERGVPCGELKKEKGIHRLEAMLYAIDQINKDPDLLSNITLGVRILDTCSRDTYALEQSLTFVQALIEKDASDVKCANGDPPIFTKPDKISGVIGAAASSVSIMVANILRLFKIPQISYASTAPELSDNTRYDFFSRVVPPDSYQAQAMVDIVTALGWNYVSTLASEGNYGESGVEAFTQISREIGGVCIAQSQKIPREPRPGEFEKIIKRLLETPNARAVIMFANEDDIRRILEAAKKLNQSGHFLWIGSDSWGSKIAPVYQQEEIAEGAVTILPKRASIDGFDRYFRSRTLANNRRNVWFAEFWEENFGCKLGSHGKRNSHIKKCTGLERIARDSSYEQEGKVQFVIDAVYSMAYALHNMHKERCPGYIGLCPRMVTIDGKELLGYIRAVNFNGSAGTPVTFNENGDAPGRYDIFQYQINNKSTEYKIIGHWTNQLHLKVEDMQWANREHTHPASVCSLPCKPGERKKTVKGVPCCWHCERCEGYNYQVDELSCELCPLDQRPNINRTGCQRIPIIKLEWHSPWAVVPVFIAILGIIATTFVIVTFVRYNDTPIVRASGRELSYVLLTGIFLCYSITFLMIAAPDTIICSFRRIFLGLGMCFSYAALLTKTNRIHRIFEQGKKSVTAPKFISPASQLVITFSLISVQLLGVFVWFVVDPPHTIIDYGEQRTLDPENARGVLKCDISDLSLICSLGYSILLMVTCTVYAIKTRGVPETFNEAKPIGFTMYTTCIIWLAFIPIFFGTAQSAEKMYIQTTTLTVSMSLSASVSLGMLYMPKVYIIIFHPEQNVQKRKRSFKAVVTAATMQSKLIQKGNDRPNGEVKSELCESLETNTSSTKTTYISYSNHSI
Test: mGluR8 Gi/Go-coupled signaling modulation – cell-based, rat, thallium flux, HTS, primary screen (AID 488969)
Conditions: HEK293 rat mGluR8, GIRK (G protein-gated inwardly rectifying potassium channel) thallium flux, FluoZin2; at 10 µM; stronger effect = higher value; submaximal glutamate (EC20) added with thallium
Whole data set: some 110,000 compounds, median “z-score” near -0.1, cut for the highest 2% near 2. This is one part of a sample in which the highest values are shown more often than they occur.
The class of a record is decided solely by its measured z-score; consult group 1 (below -0.2), group 2 (-0.2 to below 0.4), group 3 (0.4 or more)

Which of the defined bands does the recorded z-score of `CCOC(=O)c1c(C)n(C)c2ccc(O)c(CN3CCN(C)CC3)c12` sit within? group 2

Which of the defined bands does the recorded z-score of O=C1CC(c2ccc3c(c2)OCO3)c2cc3c(cc2N1)OCCO3 (stereo unspecified) sit within? group 2

Which of the defined bands does the recorded z-score of O=C1CC(c2ccncc2)c2cc3c(cc2N1)OCCO3 (stereo unspecified) sit within? group 3

Which of the defined bands does the recorded z-score of `CCOC(=O)c1c(C)n(C)c2ccc(O)c(CN3CCC(C)CC3)c12` sit within? group 3

Which of the defined bands does the recorded z-score of Cc1ccc(C2CC(=O)c3cnc(NC(=O)c4ccco4)nc3C2)cc1 (stereo unspecified) sit within? group 1

Which of the defined bands does the recorded z-score of Cc1ccsc1/C=C1/SC(N2CC(C)OC(C)C2)=NC1=O (stereo unspecified) sit within? group 1

Which of the defined bands does the recorded z-score of O=C(N/N=C/c1c[nH]c2ccccc12)C1CC1(c1ccccc1)c1ccccc1 (stereo unspecified) sit within? group 1

Which of the defined bands does the recorded z-score of `CCOC(=O)c1c(C)oc2ccc(O)c(CN(C)C)c12` sit within? group 3

Which of the defined bands does the recorded z-score of O=C1CC(c2ccncc2)c2cc3c(cc2N1)OCO3 (stereo unspecified) sit within? group 2
